tested system: human MCH receptor expressed from the open reading frame cDNA SEQ. ID. NO. 1 in 293-AEQ17 cells (human, UniProt Q99705 1-353)
Sequence (Q99705 whole entry): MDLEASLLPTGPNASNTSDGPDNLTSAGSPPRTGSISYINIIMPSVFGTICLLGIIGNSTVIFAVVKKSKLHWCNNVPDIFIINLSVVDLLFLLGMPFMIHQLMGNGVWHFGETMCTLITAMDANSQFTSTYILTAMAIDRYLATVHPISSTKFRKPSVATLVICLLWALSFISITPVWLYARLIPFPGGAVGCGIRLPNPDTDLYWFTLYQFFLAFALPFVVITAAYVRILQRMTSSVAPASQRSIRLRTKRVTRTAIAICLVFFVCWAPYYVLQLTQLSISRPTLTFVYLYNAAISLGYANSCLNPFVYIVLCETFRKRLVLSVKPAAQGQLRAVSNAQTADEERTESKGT
protocol details: cell-based or functional assay
Bridges are numbered along the chain shown (N, C = ends). Where no end group is shown, it is not given here.
Mark label 1 only for Activation % values smaller than 30%; exact matches and larger values are label 0.

binder	answer label
Ac-RCMLSRVYRPC-NH2 (disulfide 2-11 (inferred), ID; NO; 7 peptide; MCH position numbering) [MCH analog SEQ. ID. NO. 52 (position 10: Ser)]	label 0
DFDMLRCMLGRVYRPCWQV (disulfide 7-16) [mammalian MCH (SEQ. ID. NO. 11)]	label 0
RCMLXRVYRPC (β-Ala at position 10; N-terminal acetyl, C-terminal amide, Cys-Cys disulfide as in SEQ. ID. NO. 7) [MCH analog SEQ. ID. NO. 60 (position 10: β-Ala)]	label 1
Ac-RCMLERVYRPC-NH2 (disulfide 2-11 (inferred), ID; NO; 7 peptide; MCH position numbering) [MCH analog SEQ. ID. NO. 54 (position 10: Glu)]	label 1
RCMLXRVYRPC (D-Nle at position 10; N-terminal acetyl, C-terminal amide, Cys-Cys disulfide as in SEQ. ID. NO. 7) [MCH analog SEQ. ID. NO. 56 (position 10: D-Nle)]	label 0
